Entries annotated with measured TGI
Test system: K-562 leukemia
assayExplanation: NCI tumour cell line growth inhibition, 48 h
readout: TGI

{"compound": "Clc1nc(Cl)c2ncn(Cc3cccc(COc4cccc(OCc5cccc(Cn6cnc7c(Cl)nc(Cl)nc76)c5)c4)c3)c2n1", "measValue": "> 100 µM"}
{"compound": "NC1=NN(c2ccccc2)C(=O)C1C(=O)CCC(=O)Nc1cccc(C(F)(F)F)c1 (stereo unspecified)", "measValue": "> 100 µM"}
{"compound": "C/C(Cl)=N/OC(=O)Nc1ccc(F)c([N+](=O)[O-])c1", "measValue": "> 23.9 µM"}
{"compound": "Cc1ccccc1N(CCC#N)C1=NN(C(=O)CC(=O)Nc2ccccc2)C(c2ccccc2)C1 (stereo unspecified)", "measValue": "> 100 µM"}
{"compound": "COC(=O)c1ccccc1/C=C1\\Cc2c(ccc3c2CCC3)C1=O", "measValue": "> 100 µM"}
{"compound": "O=C1c2ccccc2C(=O)C2NC(CCCCCSSCCCCCC3=NC4C(=O)c5ccccc5C(=O)C4N3)=NC12 (stereo unspecified)", "measValue": "> 100 µM"}
{"compound": "CCCCCCCC(CC(=O)NC(CO)C(=O)NC(CO)CC(C)C)OC(=O)CC(CCCCCCC)OC(=O)CC(CCCCCCC)OC1OC(C)C(O)C(OC2OC(C)C(O)C(OC(C)=O)C2O)C1O (stereo unspecified)", "measValue": "31.4 µM"}
{"compound": "NCCCC[C@@H]1NC(=O)[C@H]2CCCN2C(=O)[C@H](Cc2ccccc2)NC(=O)[C@H](Cc2ccccc2)CNC1=O", "measValue": "> 100 µM"}
{"compound": "CN/N=C(/CCN1CCCC1)CC(c1ccccc1)c1c(O)c2ccccc2oc1=O (stereo unspecified)", "measValue": "> 100 µM"}
{"compound": "O=C(N/N=C/c1cccc(O)c1O)c1ccccc1", "measValue": "> 100 µM"}
{"compound": "Cc1cccc2nc(-c3ccccc3)cc(=O)n12", "measValue": "> 100 µM"}

----------
# TGI listing for each entry below
Test system: 786-0 renal
assayExplanation: NCI tumour cell line growth inhibition, 48 h
readout: TGI

{"compound": "Cc1cc(C)c(C(=O)CC(=O)c2cccnc2)c(C)c1", "systemTested": "786-0 renal", "readout": "TGI", "measValue": "50.1 µM"}
{"compound": "COC(=O)/C(C)=N/NC(=S)SC", "systemTested": "786-0 renal", "readout": "TGI", "measValue": "> 100 µM"}
{"compound": "CCN(CC)CCCC(C)Nc1c(C)cnc2cc(Cl)c(C)cc12 (stereo unspecified)", "systemTested": "786-0 renal", "readout": "TGI", "measValue": "23 µM"}
{"compound": "Cn1c(-c2cccs2)cc(-c2cccs2)c1-c1cccs1", "systemTested": "786-0 renal", "readout": "TGI", "measValue": "> 100 µM"}
{"compound": "CC(=O)OC1=NN=C2COC(c3ccccc3OC(C)=O)=NN2C1", "systemTested": "786-0 renal", "readout": "TGI", "measValue": "> 50 µM"}
{"compound": "CC12CCCC(C(=O)O)(C1)[C@H](C(C)(C)C(=O)O)CC2 (stereo partly specified)", "systemTested": "786-0 renal", "readout": "TGI", "measValue": "> 100 µM"}
{"compound": "Cc1ccc(C(=NN=C(N)N)c2ccc(C)cc2)cc1", "systemTested": "786-0 renal", "readout": "TGI", "measValue": "2.86 µM"}
{"compound": "O=C(/C=C/c1cccc([N+](=O)[O-])c1)N1CCN(CCOC(c2ccccc2)c2ccccc2)CC1", "systemTested": "786-0 renal", "readout": "TGI", "measValue": "> 100 µM"}
{"compound": "CN(C)P(=O)(/C(N)=N/Nc1ccc([N+](=O)[O-])cc1)N(C)C", "systemTested": "786-0 renal", "readout": "TGI", "measValue": "> 100 µM"}
{"compound": "COc1ccc(CC2Cc3ccccc3CCN2)cc1OC (stereo unspecified)", "systemTested": "786-0 renal", "readout": "TGI", "measValue": "> 50 µM"}
{"compound": "CCc1[nH]c(=O)nc(N)c1-c1ccc(N2CCCCC2)c([N+](=O)[O-])c1", "systemTested": "786-0 renal", "readout": "TGI", "measValue": "> 100 µM"}

----------
Test system: SNB-19 CNS
assayExplanation: NCI tumour cell line growth inhibition, 48 h; in the data active = GI50 below about 0.43 µM; inactive = the rest
Labels: active, inactive

{"molecule": "O=C(CCl)Nc1ccc(Cl)cc1", "systemTested": "SNB-19 CNS", "classAssignment": "inactive"}
{"molecule": "CC(=O)[CH-]C(=O)c1ccccc1.CC(=O)[CH-]C(=O)c1ccccc1.O=C([O-])c1ccc([O-])cc1.O=C([O-])c1ccc([O-])cc1.[Ti+4]", "systemTested": "SNB-19 CNS", "classAssignment": "inactive"}
{"molecule": "CCS(=O)(=O)c1ccc(OC)c(Nc2ncc(-c3cccc(C(C)=O)c3)o2)c1", "systemTested": "SNB-19 CNS", "classAssignment": "inactive"}
{"molecule": "NC(N)=NCCCn1c2c(c3ccccc3c1=O)C(=O)c1ccccc1-2", "systemTested": "SNB-19 CNS", "classAssignment": "inactive"}
{"molecule": "COc1cc[nH]c1/C=C1\\C(=O)Nc2ccccc21", "systemTested": "SNB-19 CNS", "classAssignment": "inactive"}
{"molecule": "CN(C)c1ccc(N)cc1", "systemTested": "SNB-19 CNS", "classAssignment": "inactive"}
{"molecule": "CCOC(=O)c1cc(/C(=N\\O)c2cc(OC)c(OC)c(OC)c2)n2cc(C)cc(C)c12", "systemTested": "SNB-19 CNS", "classAssignment": "inactive"}
{"molecule": "Cc1ccc(C(=NN=C(N)N)c2ccc(C)cc2)cc1", "systemTested": "SNB-19 CNS", "classAssignment": "inactive"}
{"molecule": "CC1CN1CC(O)C(O)CN1CC1C (configuration not stated)", "systemTested": "SNB-19 CNS", "classAssignment": "inactive"}
{"molecule": "CCC1(O)C(=O)OCc2c1cc1n(c2=O)Cc2cc3ccc(C=O)cc3nc2-1 (configuration not stated)", "systemTested": "SNB-19 CNS", "classAssignment": "inactive"}
{"molecule": "NC(=S)N/N=C/c1ccc(OC(=O)COc2ccc(Cl)cc2)cn1", "systemTested": "SNB-19 CNS", "classAssignment": "inactive"}
{"molecule": "CCC[CH2][Sn]1([CH2]CCC)[O]C(=O)C(C(C)C)N=Cc2ccccc2[O]1 (configuration not stated)", "systemTested": "SNB-19 CNS", "classAssignment": "active"}

----------
Reported values of TGI for individual entries
System: NCI/ADR-RES ovarian
assayExplanation: NCI tumour cell line growth inhibition, 48 h

{"compound": "CCC(C)C(=O)OC1C(=O)OC2CC3C(C)=CC(=O)C(O)C3(C)C3C4(O)OCC23C1C(C)C4O (stereo not given)", "TGI": "6.47 µM"}
{"compound": "CC(=O)Nc1ccc(-c2nc3ccccc3s2)cc1Br", "TGI": "> 100 µM"}
{"compound": "Cc1cc(S(=O)(=O)Nc2nc(N)nc(N3N=CCC3C)n2)c(SCC(=O)O)cc1Cl (stereo not given)", "TGI": "> 10 µM"}
{"compound": "CC(=O)NC1C(OCc2ccccc2)OC(CO)C(O)C1OC(C)C(=O)NC(C(=O)NC(CCC(=O)NCCCC(=O)Nc1ccc2c(c1)CN1C(=O)c3ccccc3C1=N2)C(N)=O)C(C)C (stereo not given)", "TGI": "> 100 µM"}
{"compound": "Cc1ccc(-c2c(C#N)c(-c3ccccc3)n(NS(=O)(=O)c3ccc(C)cc3)c(=O)c2C#N)cc1", "TGI": "> 100 µM"}

----------
System: HT29 colon
assayExplanation: NCI tumour cell line growth inhibition, 48 h
# TGI per entry

{"compound": "COc1ccccc1C[C@@H]1OC2(C=CC(=O)CC2SC(=O)c2ccccc2)O[C@H]1Cc1ccccc1OC (stereo not given in full)", "units": "µM", "sign": "=", "TGI": 3.14}
{"compound": "CC12Nc3c(Cl)cc(Cl)cc3N1C(=O)c1ccccc12 (stereo not given)", "units": "µM", "sign": ">", "TGI": 100}
{"compound": "Cc1ccccc1N(CCC#N)C1=NN(C(=O)CC(=O)Nc2ccccc2)C(c2ccccc2)C1 (stereo not given)", "units": "µM", "sign": ">", "TGI": 100}
{"compound": "Cc1ccc(Nc2nc3c(s2)C(=O)c2ccccc2C3=O)c(C)c1", "units": "µM", "sign": "=", "TGI": 48.3}
{"compound": "Fc1cc(F)c(COc2cc(Cn3cnc4c(Cl)nc(Cl)nc43)ccc2C23CC4CC(CC(C4)C2)C3)cc1F", "units": "µM", "sign": "=", "TGI": 62.5}
